Origin of the recorded values: patent US20100267561A1

# Tested on: kochia (Kochia scoparia)
# experimentSummary: Test B pre-/postemergence plant response
# Type: in vivo
# recordedConditions: Preemergence, 16 g ai/ha; scale 0 to 100 (0 no effect, 100 complete control)
readout: Plant response rating, Kochia
Please respond with just the number, no unit label.

Cc1cc(-c2ccc(Cl)cc2)nn1-c1c(OC(=O)c2cccc(Cl)c2)cnn(C)c1=O ... 0
Cc1cc(-c2ccc(Cl)cc2)nn1-c1c(OC(=O)CC(C)C)cnn(C)c1=O ... 0
Cc1cc(-c2ccc(Cl)cc2)nn1-c1c(OS(=O)(=O)c2ccccc2)cnn(C)c1=O ... 0

Notebook: pull reported Plant response rating, Kochia for kochia (Kochia scoparia), entry Cc1cc(-c2ccc(Cl)cc2)nn1-c1c(OC(=O)c2ccccc2Cl)cnn(C)c1=O
0

###

We begin with a simple list: items and their reported Plant response rating, Lambsquarters.
# Tested on: lambsquarters (Chenopodium album)
# experimentSummary: Test B pre-/postemergence plant response
# Assay type: in vivo
# recordedConditions: Postemergence, 62 g ai/ha; scale 0 to 100, 0 no effect, 100 complete control
Please respond with just the number, no unit label.

Cc1cc(-c2ccc(Cl)cc2)nn1-c1c(OC(=O)c2ccccc2Cl)cnn(C)c1=O [Compound 38] ... 0
CCc1c(C)c(-c2ccc(Br)cc2)nn1-c1c(O)cnn(C)c1=O [Compound 83] ... 0

For the next question, use this compound.
# lookup: Plant response rating, Lambsquarters of CCCc1cc(-c2ccc(C(F)(F)F)cc2)nn1-c1c(O)cnn(C)c1=O [Compound 72]
0

###

# Test system: yellow nutsedge (Cyperus esculentus)
# experimentSummary: Test B pre-/postemergence plant response
# Format: in vivo
# recordedConditions: Preemergence; 16 g ai/ha; scale 0 to 100
We begin with a simple list: items and their reported Nutsedge, Yellow plant response rating.
Please respond with just the number, no unit label.

Answered cases to consult:
COc1nn(C)c(=O)c(-n2nc(-c3ccc(Br)cc3)cc2C)c1O ... 0
CCc1c(C)c(-c2ccc(Br)cc2)nn1-c1c(O)cnn(C)c1=O ... 0
CCc1cc(-c2ccc(C(F)(F)F)cc2)nn1-c1c(O)c(OC)nn(C)c1=O ... 0
Cc1nn(C)c(=O)c(-c2nc(-c3ccc(Cl)cc3)sc2C)c1O ... 0
Cc1cc(-c2ccc(Cl)cc2)nn1-c1c(OS(=O)(=O)c2ccc(Cl)s2)cnn(C)c1=O ... 0

# lookup: Nutsedge, Yellow plant response rating of CCCC(=O)Oc1cnn(C)c(=O)c1-n1nc(-c2ccc(Cl)cc2)cc1C
0

###

# System: goosegrass (Eleusine indica)
# experimentSummary: Test B pre-/postemergence plant response
# Type: in vivo
# recordedConditions: Postemergence, 16 g ai/ha; scale 0 to 100
# Text: […] Plant species in the flooded paddy test consisted of rice (Oryza sativa), umbrella sedge (Cyperus difformis), ducksalad (Heteranthera limosa) and barnyardgrass (Echinochloa crus-galli) grown to the 2-leaf stage for testing. […] Treated plants and controls were maintained in a greenhouse for 13 to 15 days, after which time all species were compared to controls and visually evaluated. […]
Cut-off 60 on Plant response rating, Goosegrass, inclusive. At or above means Yes; below means No.

Completed entries (count: 5):
Cc1cc(-c2ccc(Cl)cc2)nn1-c1c(OC(=O)CC(C)C)cnn(C)c1=O ... Yes
Cc1cc(-c2ccc(Cl)cc2)nn1-c1c(OC(=O)Oc2ccccc2)cnn(C)c1=O ... Yes
CCCc1cc(-c2ccc(Cl)cc2)nn1-c1c(O)cnn(C)c1=O ... Yes
Cc1nn(C)c(=O)c(-n2nc(-c3ccc(Cl)cc3)cc2Cl)c1O ... No
CCCC(=O)Oc1cnn(C)c(=O)c1-n1nc(-c2ccc(Cl)cc2)cc1C ... Yes

Quick check, Plant response rating, Goosegrass >= 60? CCc1cc(-c2ccc(Cl)cc2)nn1-c1c(O)cnn(C)c1=O
Yes

###

# Test system: umbrella sedge (Cyperus difformis)
# experimentSummary: Test B flooded paddy test plant response
# Format: in vivo
# recordedConditions: Flood (flooded paddy test), 250 g ai/ha; scale 0 to 100, 0 no effect, 100 complete control
Flag rule - Plant response rating, Sedge, Umbrella less than 60 flags Satisfied; the remaining entries get Not satisfied.

Cc1nn(C)c(=O)c(-n2nc(-c3ccc(Cl)cc3)cc2Cl)c1O [Compound 59] ... Satisfied
Cc1cc(-c2ccc(Cl)cc2)nn1-c1c(OC(=O)N(C)C)cnn(C)c1=O [Compound 64] ... Satisfied
CCn1ncc(O)c(-c2cn(-c3ccc(Cl)cc3)nc2C)c1=O [Compound 65] ... Not satisfied
CCc1cc(-c2ccc(C(F)(F)F)cc2)nn1-c1c(O)c(C)nn(C)c1=O [Compound 16] ... Satisfied
Cc1cc(-n2cc(Cl)cn2)ccc1-c1c(O)cnn(C)c1=O [Compound 60] ... Satisfied

is_below(Plant response rating, Sedge, Umbrella, 60) for Cc1nn(C)c(=O)c(-n2nc(-c3ccc(Cl)cc3)cc2C)c1O [Compound 15] ?
Not satisfied

is_below(Plant response rating, Sedge, Umbrella, 60) for CCc1cc(-c2ccc(Cl)cc2)nn1-c1c(O)cnn(C)c1=O [Compound 21] ?
Satisfied

###

We begin with a simple list: items and their reported Plant response rating, Sedge, Umbrella.
# Test system: umbrella sedge (Cyperus difformis)
# experimentSummary: Test B flooded paddy test plant response
# Type: in vivo
# recordedConditions: Flood (flooded paddy test), 125 g ai/ha; scale 0 to 100, 0 no effect, 100 complete control
# Source text: Plant species in the flooded paddy test consisted of rice (Oryza sativa), umbrella sedge (Cyperus difformis), ducksalad (Heteranthera limosa) and barnyardgrass (Echinochloa crus-galli) grown to the 2-leaf stage for testing. […] Treated plants and controls were maintained in a greenhouse for 13 to 15 days, after which time all species were compared to controls and visually evaluated. […]
Please respond with just the number, no unit label.

CCc1cc(-c2ccc(C(F)(F)F)cc2)nn1-c1c(OC(=O)OC(C)C)cnn(C)c1=O ... 60

# lookup: Plant response rating, Sedge, Umbrella of CCc1cc(-c2ccc(Cl)c(Cl)c2)nn1-c1c(OC(=O)OC(C)C)cnn(C)c1=O
0

# lookup: Plant response rating, Sedge, Umbrella of Cc1cc(-c2ccc(Cl)cc2)nn1-c1c(OS(=O)(=O)c2ccc(Cl)s2)cnn(C)c1=O
75

# lookup: Plant response rating, Sedge, Umbrella of CCc1cc(-c2ccc(Br)cc2)nn1-c1c(O)cnn(CC(F)(F)F)c1=O
0

###

# Test system: downy bromegrass (Bromus tectorum)
# experimentSummary: Test B pre-/postemergence plant response
# Assay type: in vivo
# recordedConditions: Preemergence, 62 g ai/ha; scale 0 to 100
Cut-off 60 on Plant response rating, Bromegrass, Downy, inclusive. At or above means Yes; below means No.

Completed entries (count: 5):
Cc1cc(-c2ccc(Cl)cc2)nn1-c1c(OS(=O)(=O)c2cccc3ccccc23)cnn(C)c1=O [Compound 47] ... Yes
Cn1ncc(O)c(-n2nc(-c3ccc(Cl)cc3)cc2C2CC2)c1=O [Compound 45] ... Yes
Cc1cc(-c2ccc(Cl)cc2)nn1-c1c(OC(=O)c2ccccc2Cl)cnn(C)c1=O [Compound 38] ... Yes
CCCc1cc(-c2ccc(Cl)cc2)nn1-c1c(O)cnn(C)c1=O [Compound 43] ... Yes
Cc1cc(-c2ccc(Cl)cc2)nn1-c1c(OS(=O)(=O)C(C)C)cnn(C)c1=O [Compound 50] ... No

Quick check, Plant response rating, Bromegrass, Downy >= 60? Cc1ccc(-c2ccc(Cl)cc2)cc1-c1c(O)cnn(C)c1=O [Compound 46]
No

###

# System: blackgrass (Alopecurus myosuroides)
# experimentSummary: Test C pre-/postemergence plant response
# Assay type: in vivo
# recordedConditions: Preemergence, 62 g ai/ha; scale 0 to 100, 0 no effect, 100 complete control
We begin with a simple list: items and their reported Plant response rating, Blackgrass.
Please respond with just the number, no unit label.

Answered cases to consult:
Cc1cc(-c2ccc(Cl)cc2)nn1-c1c(OC(=O)CC(C)C)cnn(C)c1=O [Compound 37] ... 98
CCc1cc(-c2ccc(Cl)cc2)nn1-c1c(O)cnn(C)c1=O [Compound 21] ... 100
Cc1cc(-c2ccc(Cl)cc2)nn1-c1c(OC(=O)Oc2ccccc2)cnn(C)c1=O [Compound 54] ... 100

For the next question, use this compound.
# lookup: Plant response rating, Blackgrass of CCCc1cc(-c2ccc(Cl)cc2)nn1-c1c(O)cnn(C)c1=O [Compound 43]
100

###

# Test system: johnsongrass (Sorghum halepense)
# experimentSummary: Test B pre-/postemergence plant response
# Assay type: in vivo
# recordedConditions: Preemergence, 31 g ai/ha; 0 to 100 scale, 0 no effect, 100 complete control
readout: Plant response rating, Johnsongrass
Please respond with just the number, no unit label.

CCOC(=O)Oc1cnn(C)c(=O)c1-n1nc(-c2ccc(Cl)cc2)cc1C ... 75
Cc1cc(-c2ccc(Br)cc2)nn1-c1c(OC(=O)C2CC2)cnn(C)c1=O ... 0
CCc1cc(-c2ccc(C(F)(F)F)cc2)nn1-c1c(O)c(C)nn(C)c1=O ... 25
Cc1ccc(-c2ccc(Cl)cc2)cc1-c1c(O)cnn(C)c1=O ... 85

For the next question, use this compound.
# lookup: Plant response rating, Johnsongrass of Cc1nn(C)c(=O)c(-n2nc(-c3ccc(Cl)cc3)cc2C)c1O
70
